Entries and their melting point

Recorded melting point, per entry:
Fill blank: measured melting point of the compound `O=c1[nH]c2ccc(S(=O)(=O)Nc3ccc(Cl)cc3Cl)cc2c(=O)o1` is ____.
215 °C

Query CC(=O)NC1(c2ccc(C(C)N3CCN(c4ncccn4)CC3)cc2)CC1 (stereo unspecified) next
124 to 125 °C

Query O=C(Cc1ccccc1)c1cc2c(c(Cl)c1Cl)OC(C(=O)O)C2 (stereo unspecified) next
146 °C

Query CCCCCCC1(c2ccccc2)CC(O)=CC(=O)O1 (stereo unspecified) next
119 to 120 °C

Continuing:
Fill blank: measured melting point of the compound `COc1cc(C(=O)c2nc(C#N)c3ccccn23)ccc1[N+](=O)[O-]` is ____.
219 °C

Query `O=c1[nH]c2c(c3nc(-c4ccccc4F)nn13)CCCCC2` next
257 to 259 °C

Query CC(C)CC1(C)NCCNC1=O (stereo unspecified) next
79 to 82 °C

Query `O=C1CNC(=O)N1Cc1ccc2c(c1)N(C1CCN(CCc3ccc(F)cc3)CC1)CC2` next
191 to 193 °C

Query `CC1(C)CC(=O)C(c2c(Cl)cc([N+](=O)[O-])cc2Cl)C(=O)C1` next
288 to 290 °C

Query `O=C(O)c1ccc2c(c1)ncn2-c1cc(Cl)ccc1O` next
308 to 310 °C

Query `O=C(O)CCc1cc2cc(Cl)ccc2n1S(=O)(=O)c1ccc(Cl)cc1` next
158 to 160 °C

Query `COc1ccc([N+](=O)[O-])cc1C=O` next
89 to 90 °C

Query `COc1ccc(Cn2cnc3c(-c4ccco4)nc(C(C)=O)nc32)cc1` next
166 to 167 °C

Query `CCCCCCCCCCn1c(C)cc(C)c(C#N)c1=O` next
82 to 83 °C

Sourced from a melting point compilation (Tetko et al.; mined from patent text by program, amines drawn as free bases though some values may be those of a salt)
